target: human GABA A receptor α5β3γ2 (Homo sapiens, UniProt P18507+P31644); construct: expressed in transfected cells; host or cells: HEK293 cells, transiently transfected; membranes prepared from them; assay: [3H]flumazenil competition binding, HEK293 cells expressing human GABA A α5β3γ2 receptors; conditions: human α5β3γ2 in HEK293 (transiently transfected), 0.5 nM [3H]flumazenil, mean of two determinations; read-out: Ki[nM] hα5
Listed here are molecules together with their documented Ki.
Answer in nM, number only, no unit symbol.

Example molecules with recorded Ki:
compound_smiles	recorded_measurement
CCOc1cccc2cc(C(=O)c3c(-c4ccc(Br)cc4)noc3C)oc12	9.4
Cc1onc(-c2ccc(Br)cc2)c1C(=O)c1cc2cccc(OCC(=O)NC(C)C)c2o1	2.3

Read the next record carefully.
Find Ki (human GABA A receptor α5β3γ2 (Homo sapiens, UniProt P18507+P31644)) for the entry `Cc1onc(-c2ccc(Br)cc2)c1C(=O)c1cc2ccccc2o1` 8.1

###

Target: human GABA A receptor α5β3γ2 (Homo sapiens, UniProt P18507+P31644)
Construct: expressed in transfected cells; host or cells: HEK293 cells, transiently transfected; membranes prepared from them
Test: [3H]flumazenil competition binding, HEK293 cells expressing human GABA A α5β3γ2 receptors
Conditions: human α5β3γ2 in HEK293 (transiently transfected), 0.5 nM [3H]flumazenil, mean of two determinations; read-out: Ki[nM] hα5
Protocol: Membrane Preparation and Binding Assay The affinity of compounds at GABA A receptor subtypes was measured by competition for [3H]flumazenil (85 Ci/mmol; Roche) binding to HEK293 cells expressing rat (stably transfected) or human (transiently transfected) receptors of composition α1β3γ2, α2β3γ2, α3β3γ2 and α5β3γ2. […]
Below, each entry is listed with its recorded Ki.
A complete answer gives the number followed by the unit.

Please review the entries below; each comes with its answer.
compound_smiles	Ki
Cc1onc(-c2ccccc2)c1C(=O)c1cc2ccccc2o1	15.2 nM
Cc1onc(-c2ccc(Br)cc2)c1C(=O)c1cc2cccc(OCc3ccccn3)c2o1	36.3 nM

# input for lookup
Look up Ki for this compound: `COc1ccc2oc(C(=O)c3c(-c4ccccc4)noc3C)cc2c1` 4.6 nM
